- Test system: detached leaf segments of Triticum aestivum cv. Hereward
- Assay Name: senescence bioassay on detached wheat leaf segments in light conditions (chlorophyll retention)
- Experimental Conditions: light; at the concentration with highest activity
- Method: Seeds of winter wheat, Triticum aestivum cv. Hereward, were washed under running water for 24 hours and then sown on vermiculite soaked with Knop's solution. They were placed in the growth chamber at 25° C. with a 16/8 h light period at 50 μmol·m^−2·s^−1. […] The absorbance of the extract was recorded at 665 nm. In addition, chlorophyll extracts from fresh leaves and leaf tips incubated in deionised water were measured. […]
Reported activity (%) [10^−4 mol. l^−1 Kin = 100%] values for a set of compounds

// recorded activity (%) [10^−4 mol. l^−1 Kin = 100%] for ClCCn1cnc2c(NCc3ccco3)ncnc21 : 116 (±7) %

The reported value for BrCCn1cnc2c(NCc3ccco3)ncnc21 in terms of activity (%) [10^−4 mol. l^−1 Kin = 100%] is 121 (±8) %

Per the records, this compound ( BrCCCCn1cnc2c(NCc3ccco3)ncnc21 [6-furfurylamino-9-(4-bromobutyl)purine, reference compound] ) has activity (%) [10^−4 mol. l^−1 Kin = 100%] equal to 60 (±16) %

activity (%) [10^−4 mol. l^−1 Kin = 100%] reading for ClCCCCn1cnc2c(NCc3ccco3)ncnc21 [6-furfurylamino-9-(4-chlorobutyl)purine, reference compound] : 119 (±6) %

The compound c1coc(CNc2ncnc3nc[nH]c23)c1 [6-furfurylaminopurine (Kin), 6-furfurylaminopurine, reference compound] showed activity (%) [10^−4 mol. l^−1 Kin = 100%] equal to 100%

Value source: patent US9220269B2
